Every entry's value here was drawn from patent US20260209352A1.

Biological target: T1, Human CD3 on Human CD3+ Jurkat cells (human, UniProt P07766 23-207)
T1 construct: whole, on cells; CD3 complex on cells; also called hCD3
T1 sequence (P07766 23-207): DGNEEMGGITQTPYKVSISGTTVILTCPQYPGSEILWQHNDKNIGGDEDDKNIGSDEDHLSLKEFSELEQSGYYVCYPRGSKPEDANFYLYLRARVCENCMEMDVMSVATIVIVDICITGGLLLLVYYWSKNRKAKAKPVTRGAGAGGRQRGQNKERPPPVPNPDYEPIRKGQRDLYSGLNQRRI
Assay: cell binding hCD3, fold over background
Reported Cell Binding hCD3 (FOB) values for the following binders.
State the answer as a number, implicitly in FOB.

The cases that follow already have their Cell Binding hCD3 (FOB) on record.
Binder	Cell Binding hCD3 (FOB)
ADI-45978 (antibody, V domains shown, also called Ab15) VH: QVQLVQSGAEVKKPGASVKVSCKASGFNIKDYYMHWVRQAPGQRLEWLGWIDLENANTVYDAKFQGRVTITRDTSASTAYMELSSLRSEDTAVYYCARDAYGRYFYDVWGQGTLVTVSS VL: DIVMTQSPDSLAVSLGERATINCKSSQSLLNARTGKNYLAWYQQKPGQPPKLLIYWASARESGVPDRFSGSGSGTDFTLTISSLQAEDVAVYYCTQSYFRRTFGGGTKVEIK	25
ADI-46363 (antibody, V domains shown, also called Ab47) VH: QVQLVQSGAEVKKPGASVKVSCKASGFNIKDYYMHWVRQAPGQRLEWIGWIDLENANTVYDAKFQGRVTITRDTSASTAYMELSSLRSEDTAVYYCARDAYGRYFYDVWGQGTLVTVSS VL: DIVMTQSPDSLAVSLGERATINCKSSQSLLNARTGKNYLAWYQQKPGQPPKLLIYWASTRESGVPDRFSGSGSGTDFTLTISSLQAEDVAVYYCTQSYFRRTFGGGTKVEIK	49

Record ADI-46369 (antibody, V domains shown, also called Ab33) VH: QAQLVQSGAEVKKPGASVKVSCKASGFNIKDYYMHWVRQAPGQRLEWIGWIDLENANTVYDTKFQGRVTITRDTSASTAYMELSSLRSEDTAVYYCARDAYGRYFYDVWGQGTLVTVSS VL: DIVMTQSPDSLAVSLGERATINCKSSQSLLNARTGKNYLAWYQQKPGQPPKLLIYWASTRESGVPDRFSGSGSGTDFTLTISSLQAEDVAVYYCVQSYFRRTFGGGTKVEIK , field Cell Binding hCD3 (FOB): 33
